The values you see were collected from ChEMBL document CHEMBL3988442.

system: Wolbachia pipientis; assay: Anti-Wolbachia Cell-Based Screen; type: functional; design: scale not given: in the data most compounds retested in dose-response had high values; details: 5 µM
The campaign covered roughly 48,000 compounds. About 13,000 (27%) showed an effect of 50% or more. This is one part of the list.
Readings of Percent Effect for the listed compounds
QUANTITY KIND: Percent Effect (%)

>  <COMPOUND>
O=C(CN1CCN(c2ncnc3c2CCNCC3)CC1)N1CCCCC1

>  <READING UNIT>
%

>  <REPORTED VALUE>
-2.249

$$$$
>  <COMPOUND>
Cc1cc(CNC(=O)C2CCN(CC(N)=O)CC2)cc(C)n1

>  <READING UNIT>
%

>  <REPORTED VALUE>
2.597

$$$$
>  <COMPOUND>
COCC1c2c(cnn2C)CCN1C(=O)c1cc(C)on1.O=C(O)C(F)(F)F (stereo unspecified)

>  <READING UNIT>
%

>  <REPORTED VALUE>
103.5

$$$$
>  <COMPOUND>
Cc1cncnc1C1CCN(CCO)CC1

>  <READING UNIT>
%

>  <REPORTED VALUE>
125.7

$$$$
>  <COMPOUND>
NC(=O)C1CCN(C(=O)NCc2ccc(-c3ccn[nH]3)cc2)CC1

>  <READING UNIT>
%

>  <REPORTED VALUE>
110.5

$$$$
>  <COMPOUND>
CNC(=O)[C@@H]1C[C@@H](N)CN1c1nnc(-c2ccccc2)s1

>  <READING UNIT>
%

>  <REPORTED VALUE>
-7.13

$$$$
>  <COMPOUND>
CCOCC1c2c(cnn2C)CCN1C(=O)c1cc(C)on1.O=C(O)C(F)(F)F (stereo unspecified)

>  <READING UNIT>
%

>  <REPORTED VALUE>
118

$$$$
>  <COMPOUND>
NC(=O)C1CCN(C(=O)NCc2ccc3c(c2)OCCO3)CC1

>  <READING UNIT>
%

>  <REPORTED VALUE>
2.129

$$$$
>  <COMPOUND>
O=C(NCCn1nc2ccccn2c1=O)c1cccc2[nH]ncc12

>  <READING UNIT>
%

>  <REPORTED VALUE>
-8.467

$$$$
>  <COMPOUND>
COCC1c2nnn(CC3CC3)c2CCN1C(=O)c1cc(C)on1 (stereo unspecified)

>  <READING UNIT>
%

>  <REPORTED VALUE>
18.93

$$$$
>  <COMPOUND>
Cn1cncc1-c1nnc([C@H]2CCN(CC3CCCCC3)C2)o1

>  <READING UNIT>
%

>  <REPORTED VALUE>
-8.237

$$$$

---

tested on: Wolbachia pipientis; experiment: Anti-Wolbachia Cell-Based Screen; assay type: functional; parameters: scale not given: in the data most compounds retested in dose-response had high values; settings: 5 µM
The whole screen tested about 48,000 compounds, of which about 13,000 (27%) showed an effect of 50% or more. The list shows a part of the results.
Readings of Percent Effect for the listed compounds

>  <COMPOUND>
Cc1ncc(CN2Cc3ccccc3O[C@]3(CC[C@H](CO)CC3)C2)cn1.Cl

>  <TESTED TARGET>
Wolbachia pipientis

>  <Percent Effect, %>
-8.047

$$$$
>  <COMPOUND>
Cc1noc(CN2CCOC(CN(C)C)C2)n1 (centres undefined)

>  <TESTED TARGET>
Wolbachia pipientis

>  <Percent Effect, %>
4.204

$$$$
>  <COMPOUND>
Cc1cnccc1Cn1ccnc1C1CCOC1 (centres undefined)

>  <TESTED TARGET>
Wolbachia pipientis

>  <Percent Effect, %>
-17.66

$$$$
>  <COMPOUND>
CCc1nc2n(n1)CC(NCc1nc(C)c(C)o1)CC2 (centres undefined)

>  <TESTED TARGET>
Wolbachia pipientis

>  <Percent Effect, %>
-17.82

$$$$
>  <COMPOUND>
CCS(=O)(=O)N1CCC2(CC1)CC(Oc1ccccn1)CO2.O=C(O)C(F)(F)F (centres undefined)

>  <TESTED TARGET>
Wolbachia pipientis

>  <Percent Effect, %>
11.25

$$$$
>  <COMPOUND>
CCOC1COC2(CCN(c3ccccn3)CC2)C1.O=C(O)C(F)(F)F (centres undefined)

>  <TESTED TARGET>
Wolbachia pipientis

>  <Percent Effect, %>
106.9

$$$$
>  <COMPOUND>
CCc1nc2n(n1)CC(NCc1noc(-c3ccc(C)cc3)n1)CC2 (centres undefined)

>  <TESTED TARGET>
Wolbachia pipientis

>  <Percent Effect, %>
89.35

$$$$
>  <COMPOUND>
CC1CCN(S(=O)(=O)NC(C)Cc2ccco2)CC1 (centres undefined)

>  <TESTED TARGET>
Wolbachia pipientis

>  <Percent Effect, %>
1.293

$$$$
>  <COMPOUND>
Cc1n[nH]c(C2CN(C(=O)c3ccc4c(c3)CCCC4)CCO2)n1 (centres undefined)

>  <TESTED TARGET>
Wolbachia pipientis

>  <Percent Effect, %>
-29.36

$$$$
>  <COMPOUND>
Cc1cccc(-c2nc(CNC3CCc4ncnn4C3)no2)c1 (centres undefined)

>  <TESTED TARGET>
Wolbachia pipientis

>  <Percent Effect, %>
121.2

$$$$
>  <COMPOUND>
CCOCCNC(=O)c1ccn(S(=O)(=O)c2ccc(C)cc2)c1

>  <TESTED TARGET>
Wolbachia pipientis

>  <Percent Effect, %>
-5.067

$$$$
>  <COMPOUND>
CCc1nc2n(n1)CC(NCc1noc(-c3ccccc3)n1)CC2 (centres undefined)

>  <TESTED TARGET>
Wolbachia pipientis

>  <Percent Effect, %>
-10.54

$$$$
>  <COMPOUND>
COc1ccccc1-c1noc(CCC(=O)NC(C)Cn2cccn2)n1 (centres undefined)

>  <TESTED TARGET>
Wolbachia pipientis

>  <Percent Effect, %>
-41.91

$$$$
>  <COMPOUND>
Cc1cc(C(C)NC(=O)c2ccc(O)nc2)c(C)o1 (centres undefined)

>  <TESTED TARGET>
Wolbachia pipientis

>  <Percent Effect, %>
2.609

$$$$
>  <COMPOUND>
Cc1cnccc1CN1CCN(C)C2(CCC(=O)N(CC3CC3)CC2)C1 (centres undefined)

>  <TESTED TARGET>
Wolbachia pipientis

>  <Percent Effect, %>
-0.1133

$$$$
>  <COMPOUND>
Cc1ccc(CN2CC(C(=O)Nc3ccccc3)C3(CCOCC3)C2)o1.O=C(O)C(F)(F)F (centres undefined)

>  <TESTED TARGET>
Wolbachia pipientis

>  <Percent Effect, %>
17.76

$$$$
>  <COMPOUND>
CCNC(=O)N(C)CCCc1n[nH]c(N)c1C#N

>  <TESTED TARGET>
Wolbachia pipientis

>  <Percent Effect, %>
-6.653

$$$$
>  <COMPOUND>
CCOC1COC2(CCN(Cc3cccc(C)n3)CC2)C1.O=C(O)C(F)(F)F (centres undefined)

>  <TESTED TARGET>
Wolbachia pipientis

>  <Percent Effect, %>
109.8

$$$$
>  <COMPOUND>
Cc1cccc(CO[C@@H]2CO[C@@]3(CCN(S(=O)(=O)N(C)C)C3)C2)n1.O=C(O)C(F)(F)F

>  <TESTED TARGET>
Wolbachia pipientis

>  <Percent Effect, %>
0.8682

$$$$
>  <COMPOUND>
c1csc(-c2nc(CNC3CCc4ncnn4C3)cs2)c1 (centres undefined)

>  <TESTED TARGET>
Wolbachia pipientis

>  <Percent Effect, %>
-10.85

$$$$
>  <COMPOUND>
Cc1cnccc1CN1Cc2ccccc2O[C@]2(CC[C@H](CO)CC2)C1

>  <TESTED TARGET>
Wolbachia pipientis

>  <Percent Effect, %>
131.4

$$$$
>  <COMPOUND>
CN(C)C(=O)COC1COC2(CCN(c3ncccn3)CC2)C1 (centres undefined)

>  <TESTED TARGET>
Wolbachia pipientis

>  <Percent Effect, %>
5.74

$$$$
>  <COMPOUND>
CCOC1COC2(CCN(c3ncc(C)cn3)CC2)C1 (centres undefined)

>  <TESTED TARGET>
Wolbachia pipientis

>  <Percent Effect, %>
100.2

$$$$
>  <COMPOUND>
CCc1n[nH]c(C2CN(C(=O)c3cc4c(s3)CCCC4)CCO2)n1 (centres undefined)

>  <TESTED TARGET>
Wolbachia pipientis

>  <Percent Effect, %>
-2.74

$$$$
